Measured values drawn from the antibiotic and cytotoxicity screens of Wong et al. (2023) for this set.

- Test system: HSkMC (human skeletal muscle cells)
- protocol: cytotoxicity call (relative viability < 0.9)
- settings: 10 µM
Hit rate of the full screen: of about 39,000 compounds, about 1,500 (3.8%) were called active. Shown is part of a subset that was picked to be rich in actives.
Field 'call' accepts active, inactive

Completed entries (count: 5):
O=C(CS)NCCCCCNC(=O)[C@@H]1C[C@@H]2C(=O)N[C@@H](Cc3ccccc3)C(=O)N2[C@@H]1c1ccc(O)cc1    inactive
CC(=O)O[C@H]1CC(C)(C)C[C@H]2[C@]13CO[C@@]21CC[C@H]2[C@@]4(C)CC[C@H](O[C@@H]5OC[C@H](O[C@@H]6O[C@H](CO)[C@@H](O)[C@H](O)[C@H]6O[C@@H]6OC[C@@H](O[C@@H]7O[C@H](CO)[C@@H](O)[C@H](O)[C@H]7O)[C@H](O)[C@H]6O)[C@H](O)[C@H]5O[C@@H]5O[C@H](CO)[C@@H](O)[C@H](O)[C@H]5O)[C@@](C)(CO)[C@@H]4CC[C@@]2(C)[C@]1(C)C[C@H]3O    active
C[C@H]1O[C@@H](OC[C@H]2O[C@@H](O[C@H]3CC[C@]4(C)[C@H]5CCC6=C(CC[C@@]7(C(=O)O[C@@H]8O[C@H](CO)[C@@H](O)[C@H](O)[C@H]8O[C@@H]8O[C@H](CO)[C@@H](O)[C@H](O)[C@H]8O)CCC(C)(C)C[C@@H]67)[C@]5(C)CC[C@H]4C3(C)C)[C@H](O)[C@@H](O)[C@@H]2O)[C@H](O)[C@@H](O)[C@@H]1O    inactive
COc1ccc(CCNC(=O)[C@@]2(Sc3ccc(C)cc3)CC(=O)N(C(C)C)[C@@H]2c2ccc(CO)cc2)cc1    inactive
Cc1onc(NS(=O)(=O)c2ccccc2-c2ccc(-c3ncco3)cc2CN(C)C(=O)CC(C)(C)C)c1C    inactive

# input Look up the recorded call for COc1ccc(NC(=O)N(C)C[C@H]2Oc3ccc(NC(=O)Nc4ccc(C(F)(F)F)cc4)cc3C(=O)N([C@@H](C)CO)C[C@@H]2C)cc1 in this test.
# output inactive

# input Look up the recorded call for C[C@@H]1CN([C@H](C)CO)C(=O)c2cc(NC(=O)CCN3CCOCC3)ccc2O[C@@H]1CN(C)CC1CC1 in this test.
# output inactive

# input Look up the recorded call for C[C@@H]1O[C@@H](O[C@H]2[C@H](O[C@H]3[C@H](O)[C@@H](C(=O)O)O[C@@H](O[C@H]4CC[C@]5(C)[C@H]6CC[C@]78OC[C@@]9(CCC(C)(C)C[C@@H]97)[C@H](O)C[C@@]8(C)[C@]6(C)CC[C@H]5C4(C)C)[C@@H]3OC3O[C@H](CO)[C@@H](O)[C@H](O)[C@H]3O)O[C@H](CO)[C@H](O)[C@@H]2O)[C@H](O)[C@H](O)[C@H]1O (stereo partly drawn) in this test.
# output active

# input Look up the recorded call for CNC[C@@H]1Oc2ccc(NC(=O)Cn3cnnn3)cc2CC(=O)N([C@H](C)CO)C[C@H]1C in this test.
# output inactive

# input Look up the recorded call for COc1ccc(C#Cc2cnc3c(c2)C(=O)N([C@@H](C)CO)C[C@H](C)[C@H](CN(C)CC2CCOCC2)O3)cc1 in this test.
# output inactive
